Collected from the literature: IC50 of various molecules toward ENPP-1, MDA-MB-231 cells (Homo sapiens, UniProt P22413).
Please note: IC50 exactly at 900 nM is false. Only values below 900 nM get true.

Does this molecule meet the criterion IC50 < 900 nM? `COc1ccc2c(n1)nc(C)c1nc(CO)n(Cc3cc(F)c(S(N)(=O)=O)cc3F)c12`
false

Is the reported IC50 for COCOc1cc2c(N3CCC(C(C)CNS(N)(=O)=O)CC3)ncnc2cc1OC (stereo not drawn) strictly below 900 nM?
true

Determine if `COCOc1cc2c(N3CCN(C4(CNS(N)(=O)=O)CC4)CC3)ncnc2cc1OC` shows IC50 strictly lower than 900 nM.
true

Please check: IC50 for `COc1ccc2c(ncc3ncn(Cc4ccc(S(N)(=O)=O)cc4Br)c32)n1` , strictly under 900 nM or not?
true

Given the entry `COc1ccc2c(c1)nnc1[nH]c(=O)n(Cc3ccc(S(N)(=O)=O)cc3F)c12` , would its reported IC50 be below 900 nM?
false

Record `COc1ccc2c(ncc3[nH]c(=O)n(Cc4ccc(S(N)(=O)=O)c(F)c4)c32)n1` : is its IC50 strictly below 900 nM?
false

Is it true that IC50 reported for `COc1ccc2c(ncc3nc(C)n(Cc4ccc(S(N)(=O)=O)cn4)c32)n1` is less than 900 nM?
true

Dear colleague, could you confirm whether IC50 of `COc1ccc2c(ncc3c2n(Cc2c(F)cc(S(N)(=O)=O)cc2F)c(=O)n3C)n1` falls below 900 nM? Thanks.
true

Determine whether this molecule shows IC50 lower than 900 nM (ties excluded): `CCCn1cc(-n2c(Cl)c(Sc3cccc(C(=O)O)c3F)c3ccc(Cl)c(F)c32)cn1`
false
